Origin of the recorded values: patent US20210388087A1

Kindly state fold change of affinity for each of the entries shown.
# system: T1, Human CD3eg linker (human)
# T1 construct: Single chain: epsilon and gamma subunits of human CD3 joined by a 29-mer linker, Flag-tag at the C-terminus; also called recombinant human CD3
# T1 chain: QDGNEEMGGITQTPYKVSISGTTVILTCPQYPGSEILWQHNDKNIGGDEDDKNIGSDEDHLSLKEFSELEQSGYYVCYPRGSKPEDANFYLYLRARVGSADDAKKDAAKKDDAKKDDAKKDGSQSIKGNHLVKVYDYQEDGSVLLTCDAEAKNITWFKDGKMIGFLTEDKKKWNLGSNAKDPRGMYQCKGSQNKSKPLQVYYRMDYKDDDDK
# measurement.description: Biacore SPR, vs template H183/L072
Field: numeric (fold). Do not append units.

fold change of affinity reading for H183/L072 VH K52A (antibody, name in Kabat numbering, V domains shown) VH: QVQLVESGGGLVQPGRSLRLSCAASGFTFSNAWMHWVRQAPGKGLEWVAQIADKGNAYAAYYAPSVKGRFTISRDDSKNSIYLQMNSLKTEDTAVYYCHYVHYASASTVLPAFGVDAWGQGTTVTVSS VL: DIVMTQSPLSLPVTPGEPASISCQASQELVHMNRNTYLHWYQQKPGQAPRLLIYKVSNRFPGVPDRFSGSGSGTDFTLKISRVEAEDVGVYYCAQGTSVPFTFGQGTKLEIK : 0

Briefly, fold change of affinity measured for H183/L072 VH K52L (antibody, name in Kabat numbering, V domains shown) VH: QVQLVESGGGLVQPGRSLRLSCAASGFTFSNAWMHWVRQAPGKGLEWVAQILDKGNAYAAYYAPSVKGRFTISRDDSKNSIYLQMNSLKTEDTAVYYCHYVHYASASTVLPAFGVDAWGQGTTVTVSS VL: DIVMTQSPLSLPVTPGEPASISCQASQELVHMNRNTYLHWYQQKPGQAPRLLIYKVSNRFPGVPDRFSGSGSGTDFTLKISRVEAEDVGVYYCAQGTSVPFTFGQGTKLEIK : 0

Quick note, fold change of affinity for H183/L072 VH Y58F (antibody, name in Kabat numbering, V domains shown) VH: QVQLVESGGGLVQPGRSLRLSCAASGFTFSNAWMHWVRQAPGKGLEWVAQIKDKGNAYAAFYAPSVKGRFTISRDDSKNSIYLQMNSLKTEDTAVYYCHYVHYASASTVLPAFGVDAWGQGTTVTVSS VL: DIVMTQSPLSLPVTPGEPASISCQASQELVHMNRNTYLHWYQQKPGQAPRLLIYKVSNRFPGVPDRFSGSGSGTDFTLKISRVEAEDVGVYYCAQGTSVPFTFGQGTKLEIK landed at 1.4

Input H183/L072 VH G100hI (antibody, name in Kabat numbering, V domains shown) VH: QVQLVESGGGLVQPGRSLRLSCAASGFTFSNAWMHWVRQAPGKGLEWVAQIKDKGNAYAAYYAPSVKGRFTISRDDSKNSIYLQMNSLKTEDTAVYYCHYVHYASASTVLPAFIVDAWGQGTTVTVSS VL: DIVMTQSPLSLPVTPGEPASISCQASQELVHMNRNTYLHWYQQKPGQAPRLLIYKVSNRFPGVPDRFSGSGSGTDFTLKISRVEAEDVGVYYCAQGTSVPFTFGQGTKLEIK . Output fold change of affinity: 2.6

binder H183/L072 VH A32M (antibody, name in Kabat numbering, V domains shown) VH: QVQLVESGGGLVQPGRSLRLSCAASGFTFSNMWMHWVRQAPGKGLEWVAQIKDKGNAYAAYYAPSVKGRFTISRDDSKNSIYLQMNSLKTEDTAVYYCHYVHYASASTVLPAFGVDAWGQGTTVTVSS VL: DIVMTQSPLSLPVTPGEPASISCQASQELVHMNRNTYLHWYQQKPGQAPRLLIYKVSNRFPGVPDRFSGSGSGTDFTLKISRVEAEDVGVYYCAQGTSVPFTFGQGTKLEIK , fold change of affinity observed: 0
